test: Stability of example compounds in solid form (HPLC); assay type: physicochemical; conditions: solid, amber vial under Ar, 4 weeks, −20° C.
property.label: Solid (%) 4 week −20° C.

# molecule, Solid (%) 4 week −20° C.
data = [
    ("CC(C)(C)OC(=O)[C@@H](CCCOS(=O)(=O)c1c(Cl)cc(Cl)cc1Cl)C[C@H](NC(c1ccccc1)(c1ccccc1)c1ccccc1)C(=O)OC(C)(C)C [Ii]", 93.2),
    ("CC(C)(C)OC(=O)[C@@H](CCCOS(=O)(=O)c1cccc2cccnc12)C[C@H](NC(c1ccccc1)(c1ccccc1)c1ccccc1)C(=O)OC(C)(C)C [If]", 87.0),
    ("CC(C)(C)OC(=O)[C@@H](CCCOS(=O)(=O)c1ccc2ccccc2c1)C[C@H](NC(c1ccccc1)(c1ccccc1)c1ccccc1)C(=O)OC(C)(C)C [Id]", 99.8),
    ("CC(C)(C)OC(=O)[C@@H](CCCOS(=O)(=O)c1ccc(-c2ccc(S(=O)(=O)OCCC[C@@H](C[C@H](NC(c3ccccc3)(c3ccccc3)c3ccccc3)C(=O)OC(C)(C)C)C(=O)OC(C)(C)C)cc2)cc1)C[C@H](NC(c1ccccc1)(c1ccccc1)c1ccccc1)C(=O)OC(C)(C)C [Ig]", 97.5),
    ("CC(C)(C)OC(=O)[C@@H](CCCOS(=O)(=O)c1cccc([N+](=O)[O-])c1)C[C@H](NC(c1ccccc1)(c1ccccc1)c1ccccc1)C(=O)OC(C)(C)C [Ib]", 94.3),
]
